Test system: Hep G2 cells
Assay: In vitro expression: luciferase activity in Hep G2 cells transfected with RNA-LNPs
Assay type: cell-based
Settings: Formulation No. 010, RNA No. 331 (firefly-luciferase), 100 ng/mL RNA-LNPs, 72 hours post transfection
Form field: In vitro Expression (Mean) (one value per entry).
Give your answer as a number; write no unit.

Consider the worked cases shown below.
> print(dat)
                                   compound  endpoint.value
1  CCCCC/C=C\C/C=C\CCCCCCCC(=O)N[C@@H](COC(=O)NCCN1CCCCCC1)C(=O)OCCCCCCCC(=O)OC(CCCCCCCC)CCCCCCCC        6.30E+05
2  CCCCCCCC/C=C\CCCCCCCC(=O)NC(COC(=O)NCCN1CCCCCC1)C(=O)OCCCCCCCCOC(=O)C(CCCCCC)CCCCCCCC (stereo not drawn)        3.96E+05

Alright, here's another compound for you.
Would you mind telling me what In vitro Expression (Mean) value was observed for CCCCC/C=C\C/C=C\CCCCCCCC(=O)NC(COC(=O)NCCN1CCCCC1)C(=O)OCCCCCCCC(=O)OC(CCCCCCCC)CCCCCCCC (stereo not drawn) ? 5.75E+05

---

Tested on: C57BL/6J mice
Experiment: In vivo expression by IM, luciferase RNA-LNPs, whole-body/injection site muscle/organ luminescence
Conditions: IM 1.0 mg/kg, 24 h post injection, male C57BL/6J mice N=3, Formulation 001, RNA 331
Form field: Liver (p/s) (one value per entry).
Write the number in p/s without appending the unit.

> print(dat)
                                   compound  measurement.unit  endpoint.value
1  CCCCCCCC/C=C\CCCCCCCC(=O)NC(COC(=O)NCCN1CCCCCC1)C(=O)OCCCCCCCCOC(=O)C(CCCCCC)CCCCCCCC (stereo not shown)               p/s        2.35E+08
2  CCCCC/C=C\C/C=C\CCCCCCCC(=O)NC(COC(=O)NCCN1CCCCC1)C(=O)OCCCCCCCC(=O)OC(CCCCCCCC)CCCCCCCC (stereo not shown)               p/s        1.76E+08
3  CCCCCCCC/C=C\CCCCCCCC(=O)NC(COC(=O)NCCN1CCCCC1)C(=O)OCCCCCCCCOC(=O)C(CCCCCC)CCCCCCCC (stereo not shown)               p/s        8.73E+07

Alright, here's another compound for you.
Would you mind telling me what Liver (p/s) value was observed for CCCCC/C=C\C/C=C\CCCCCCCC(=O)NC(COC(=O)NCCN1CCCCC1)C(=O)OCCCCCC(=O)OCC(CCCCCCCC)CCCCCCCCCC (stereo not shown) ? 7.48E+07

---

System: MCP-1
Test: In vivo tolerability by IV: serum MCP-1 by Luminex
Parameters: species or system C57BL/6J mice
Conditions: IV 1.0 mg/kg, 2 h, male C57BL/6J mice N=3, Formulation 001, RNA 331
experimental.readout: MCP-1 at 2 h (pg/mL)
Write the number in pg/mL without appending the unit.

> print(dat)
                                   molecule  endpoint.value
1  CCCCCCCCCCC(CCCCCCCC)COC(=O)CCCCCOC(=O)NC(COC(=O)NCCN1CCCCC1)C(=O)OCCCCCC(=O)OCC(CCCCCCCC)CCCCCCCCCC (stereo not drawn)            1930

Would you mind telling me what MCP-1 at 2 h value was observed for CCCCCCCCCCC(CCCCCCCC)COC(=O)CCCCCOC(=O)NC(COC(=O)NCCN(C)C)C(=O)OCCCCCC(=O)OCC(CCCCCCCC)CCCCCCCCCC (stereo not drawn) ? 2430

Would you mind telling me what MCP-1 at 2 h value was observed for CCCCCCCCCCC(CCCCCCCC)COC(=O)CCCCCOC(=O)NC(COC(=O)NCCN1CCCCCC1)C(=O)OCCCCCC(=O)OCC(CCCCCCCC)CCCCCCCCCC (stereo not drawn) ? 1560

Would you mind telling me what MCP-1 at 2 h value was observed for CCCCCCCCCCC(CCCCCCCC)COC(=O)CCCCCOC(=O)NC(COC(=O)NCCN1CCCCCC1)C(=O)OCCCCCCCC(=O)OC(CCCCCCCC)CCCCCCCC (stereo not drawn) ? 554

Would you mind telling me what MCP-1 at 2 h value was observed for CCCCCCCCCCC(CCCCCCCC)COC(=O)CCCCCOC(=O)NC(COC(=O)NCCN1CCCC1)C(=O)OCCCCCC(=O)OCC(CCCCCCCC)CCCCCCCCCC (stereo not drawn) ? 3720

Would you mind telling me what MCP-1 at 2 h value was observed for CCCCCCCC/C=C\CCCCCCCCOC(=O)NC(COC(=O)NCCN1CCCCCC1)C(=O)OCCCCCC(=O)OCC(CCCCCCCC)CCCCCCCCCC (stereo not drawn) ? 1180

Origin of measurements: patent US20260200849A1
